biological target: T1, recombinant human domain 1-3His6 of the cation-independent mannose-6-phosphate receptor (human, UniProt P11717 41-467); test: BLI exp 2, dissoc pH 7
T1 construct: Biotinylated (NHS-PEG4-biotin) for BLI; Glycosylated; also called hDom1-3His6; hCI-M6PRD1-D3
Some binders, each annotated with its measured log10(koff).
experimental-readout: log10(koff) (log10 of the value in s⁻¹)

# binder, log10(koff)
data = [
    ("anti-CI-M6PR VHH10 (VHH, His6-tagged; made in Pichia pastoris) VHH: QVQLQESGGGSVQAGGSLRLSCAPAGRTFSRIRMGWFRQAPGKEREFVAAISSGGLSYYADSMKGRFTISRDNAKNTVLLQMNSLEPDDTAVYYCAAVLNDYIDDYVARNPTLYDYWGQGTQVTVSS", -2.83),
    ("anti-CI-M6PR VHH7 (VHH, His6-tagged (Pichia pastoris)) VHH: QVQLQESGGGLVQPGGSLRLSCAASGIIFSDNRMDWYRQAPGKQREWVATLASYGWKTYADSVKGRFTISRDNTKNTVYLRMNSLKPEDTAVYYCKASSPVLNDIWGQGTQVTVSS", -1.89),
    ("anti-CI-M6PR VHH11 (VHH, His6-tagged; made in Pichia pastoris) VHH: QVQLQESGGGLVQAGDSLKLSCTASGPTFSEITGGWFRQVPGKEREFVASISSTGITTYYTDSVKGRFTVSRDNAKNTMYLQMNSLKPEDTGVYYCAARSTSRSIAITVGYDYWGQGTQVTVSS", -2.40),
    ("anti-CI-M6PR VHH9 (VHH, His6-tagged; made in Pichia pastoris) VHH: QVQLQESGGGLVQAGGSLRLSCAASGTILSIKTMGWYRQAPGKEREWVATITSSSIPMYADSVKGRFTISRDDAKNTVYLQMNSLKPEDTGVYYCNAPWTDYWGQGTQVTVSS", -3.29),
    ("anti-CI-M6PR VHH6 (VHH, His6-tagged; made in E. coli) VHH: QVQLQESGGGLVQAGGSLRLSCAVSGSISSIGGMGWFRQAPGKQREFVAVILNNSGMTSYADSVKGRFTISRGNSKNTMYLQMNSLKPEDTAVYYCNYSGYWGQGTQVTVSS", -2.62),
    ("anti-CI-M6PR VHH1 (VHH, His6-tagged; made in Pichia pastoris, later also in E. coli WK6) VHH: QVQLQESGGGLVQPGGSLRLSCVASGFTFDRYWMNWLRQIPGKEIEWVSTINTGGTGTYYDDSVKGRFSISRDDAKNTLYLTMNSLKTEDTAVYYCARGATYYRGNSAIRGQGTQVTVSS", -2.68),
    ("anti-CI-M6PR VHH3 (VHH, His6-tagged; made in Pichia pastoris) VHH: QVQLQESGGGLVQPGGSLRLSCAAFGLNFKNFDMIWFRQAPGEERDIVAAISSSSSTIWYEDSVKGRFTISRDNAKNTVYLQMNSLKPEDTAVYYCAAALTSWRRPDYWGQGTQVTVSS", -3.07),
]
